- Test system: PXR:RXRa (NR concentration 270 nM, RXRa partner concentration 90 nM)
- method_notes: PBM binding z-score (relative to random genomic background probes); higher = stronger binding; sequences stand for … in GC…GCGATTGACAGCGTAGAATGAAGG
reported_property: PBM binding z-score
Enter a number only.

Please look up its PBM binding z-score: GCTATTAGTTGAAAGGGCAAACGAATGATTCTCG
0.938

Please look up its PBM binding z-score: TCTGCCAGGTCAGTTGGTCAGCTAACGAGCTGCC
0.349

Please look up its PBM binding z-score: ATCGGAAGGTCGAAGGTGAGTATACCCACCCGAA
1.65

Please look up its PBM binding z-score: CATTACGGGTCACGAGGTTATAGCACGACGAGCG
4.8

Please look up its PBM binding z-score: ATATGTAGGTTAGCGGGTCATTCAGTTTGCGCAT
3.07

Please look up its PBM binding z-score: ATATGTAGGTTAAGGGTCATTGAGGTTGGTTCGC
5.1

Please look up its PBM binding z-score: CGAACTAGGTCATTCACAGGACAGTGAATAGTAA
1.77

Please look up its PBM binding z-score: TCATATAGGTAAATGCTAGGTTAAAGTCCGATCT
0.98

Please look up its PBM binding z-score: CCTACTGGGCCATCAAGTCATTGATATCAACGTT
-0.138

Please look up its PBM binding z-score: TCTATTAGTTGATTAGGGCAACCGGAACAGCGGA
0.35

Please look up its PBM binding z-score: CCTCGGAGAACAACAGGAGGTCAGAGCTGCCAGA
1.71

Please look up its PBM binding z-score: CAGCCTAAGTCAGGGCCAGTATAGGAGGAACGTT
-0.653

Please look up its PBM binding z-score: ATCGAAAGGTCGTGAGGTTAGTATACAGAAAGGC
3.74

Please look up its PBM binding z-score: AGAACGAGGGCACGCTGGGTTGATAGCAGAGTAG
1.25

Please look up its PBM binding z-score: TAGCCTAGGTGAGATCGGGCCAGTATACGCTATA
-0.281

Please look up its PBM binding z-score: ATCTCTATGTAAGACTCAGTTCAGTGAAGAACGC
0.52

Please look up its PBM binding z-score: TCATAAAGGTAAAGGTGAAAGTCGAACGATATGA
1.3

Please look up its PBM binding z-score: TCTAGTTGGTCACCGAGGTCACACACGACGGGTA
5.31

Please look up its PBM binding z-score: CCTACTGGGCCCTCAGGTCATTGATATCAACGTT
1.43

Please look up its PBM binding z-score: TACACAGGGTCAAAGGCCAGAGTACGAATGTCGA
4.11

Please look up its PBM binding z-score: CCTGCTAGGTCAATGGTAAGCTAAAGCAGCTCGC
0.564

Please look up its PBM binding z-score: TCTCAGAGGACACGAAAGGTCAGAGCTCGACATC
4.28

Please look up its PBM binding z-score: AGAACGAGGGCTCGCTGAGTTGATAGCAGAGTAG
-0.724

Please look up its PBM binding z-score: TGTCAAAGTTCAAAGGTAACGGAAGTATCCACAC
5.74

Please look up its PBM binding z-score: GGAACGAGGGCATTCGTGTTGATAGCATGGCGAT
0.774

Please look up its PBM binding z-score: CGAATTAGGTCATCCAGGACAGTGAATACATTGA
2.36

Please look up its PBM binding z-score: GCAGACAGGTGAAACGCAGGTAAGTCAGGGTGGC
-0.471

Please look up its PBM binding z-score: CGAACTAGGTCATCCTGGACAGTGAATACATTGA
1.3

Please look up its PBM binding z-score: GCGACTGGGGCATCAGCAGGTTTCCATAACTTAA
-0.54

Please look up its PBM binding z-score: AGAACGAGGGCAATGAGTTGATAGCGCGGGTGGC
1.62

Please look up its PBM binding z-score: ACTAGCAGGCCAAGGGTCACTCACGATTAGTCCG
3.09

Please look up its PBM binding z-score: CAAACTAGGTCAAGTGGTCAAAGTCCGCTTCCCG
2.11

Please look up its PBM binding z-score: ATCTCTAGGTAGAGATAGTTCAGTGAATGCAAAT
0.338

Please look up its PBM binding z-score: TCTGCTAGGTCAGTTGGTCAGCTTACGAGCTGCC
0.13

Please look up its PBM binding z-score: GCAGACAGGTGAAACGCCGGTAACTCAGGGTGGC
-0.468

Please look up its PBM binding z-score: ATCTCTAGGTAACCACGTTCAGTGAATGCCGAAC
-0.177

Please look up its PBM binding z-score: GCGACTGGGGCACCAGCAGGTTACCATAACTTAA
0.0556

Please look up its PBM binding z-score: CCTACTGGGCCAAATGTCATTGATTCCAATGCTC
-0.184

Please look up its PBM binding z-score: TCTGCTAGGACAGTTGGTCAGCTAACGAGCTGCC
-0.745

Please look up its PBM binding z-score: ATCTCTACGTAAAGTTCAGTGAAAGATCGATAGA
1.93

Please look up its PBM binding z-score: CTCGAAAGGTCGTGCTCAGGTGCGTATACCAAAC
3.09

Please look up its PBM binding z-score: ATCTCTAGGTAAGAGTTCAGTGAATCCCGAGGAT
2.32

Please look up its PBM binding z-score: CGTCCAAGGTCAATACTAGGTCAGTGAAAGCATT
4.37

Please look up its PBM binding z-score: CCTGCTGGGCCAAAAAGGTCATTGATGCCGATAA
4.99

Please look up its PBM binding z-score: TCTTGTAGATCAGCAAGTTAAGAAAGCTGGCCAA
-0.095

Please look up its PBM binding z-score: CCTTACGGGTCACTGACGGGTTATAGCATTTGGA
3.66

Please look up its PBM binding z-score: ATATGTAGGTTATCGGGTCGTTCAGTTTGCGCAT
1.91

Please look up its PBM binding z-score: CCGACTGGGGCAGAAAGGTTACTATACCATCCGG
0.533

Please look up its PBM binding z-score: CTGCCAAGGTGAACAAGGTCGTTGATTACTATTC
2.35

Please look up its PBM binding z-score: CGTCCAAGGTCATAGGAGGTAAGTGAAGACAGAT
4.29

Please look up its PBM binding z-score: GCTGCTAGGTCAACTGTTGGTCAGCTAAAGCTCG
1.48
